// data source = ChEMBL document CHEMBL3352079

Please consider the recorded pKi for UniProt:P30291 in what follows.
Sequence (P30291 whole entry): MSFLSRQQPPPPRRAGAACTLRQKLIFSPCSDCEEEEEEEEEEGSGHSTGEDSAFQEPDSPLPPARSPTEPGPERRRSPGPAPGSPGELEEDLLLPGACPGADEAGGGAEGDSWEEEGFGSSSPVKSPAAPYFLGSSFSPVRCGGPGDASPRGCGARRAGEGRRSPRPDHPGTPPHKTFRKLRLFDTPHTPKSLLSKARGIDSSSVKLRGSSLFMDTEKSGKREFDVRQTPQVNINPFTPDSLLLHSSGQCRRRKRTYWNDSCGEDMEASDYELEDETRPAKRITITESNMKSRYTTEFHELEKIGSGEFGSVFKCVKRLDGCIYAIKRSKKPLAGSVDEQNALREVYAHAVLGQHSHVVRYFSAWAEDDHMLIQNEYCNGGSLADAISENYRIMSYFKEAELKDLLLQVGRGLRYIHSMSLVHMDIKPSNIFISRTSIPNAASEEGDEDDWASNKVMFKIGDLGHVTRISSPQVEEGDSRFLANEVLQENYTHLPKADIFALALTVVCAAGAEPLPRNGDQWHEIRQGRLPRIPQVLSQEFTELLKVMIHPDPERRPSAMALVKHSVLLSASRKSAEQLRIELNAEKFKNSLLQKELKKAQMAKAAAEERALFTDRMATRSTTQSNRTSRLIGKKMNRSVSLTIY
As a rule, pKi stands for the negative log10 of the concentration, concentration in M.

O=c1c2cnc(Nc3ccccc3)nc2n2ccnc2n1-c1ccccc1Cl: 7.68
O=c1c2cnc(Nc3ccc(N4CCCCC4)cc3)nc2n2ccnc2n1-c1ccccc1Cl: 8.26

Proceeding to the next molecule to report its pKi.
QUERY: Please tell me the measured pKi for CN1CCCc2ccc(Nc3ncc4c(=O)n(-c5ccccc5Cl)c5nccn5c4n3)cc21 ; system: UniProt:P30291.
RESULT: 8.07

====

# assayProtocol: AUC in CD-1 mouse at 10 mg/kg, po
# Format: ADME, organism-based
# Parameters: dose 10 mg/kg, route oral
# experimentalContext: plasma
Each entry below carries its reported AUC.
Express your answer in µM·h, writing the number without its unit.

Sample records with AUC:
CN1Cc2cc(Nc3ncc4c(=O)n(-c5c(F)cccc5Cl)c5nccn5c4n3)ccc2C(C)(C)C1: 24
CN1CCN(c2ccc(Nc3ncc4c(=O)n(-c5ccccc5Cl)c5nccn5c4n3)cc2)CC1: 8.4
CN1CCc2ccc(Nc3ncc4c(=O)n(-c5ccccc5Cl)c5nccn5c4n3)cc2C1: 5.2
CN1Cc2cc(Nc3ncc4c(=O)n(-c5ccccc5Cl)c5nccn5c4n3)ccc2C(C)(C)C1: 12.3
CN1Cc2cc(Nc3ncc4c(=O)n(-c5c(F)cccc5Cl)c5nccn5c4n3)ccc2C2(CC2)C1: 12

QUERY: Fill in AUC for record CN1Cc2cc(Nc3ncc4c(=O)n(-c5c(Cl)cccc5Cl)c5nccn5c4n3)ccc2C(C)(C)C1
RESULT: 9.8

QUERY: Input CN1Cc2cc(Nc3ncc4c(=O)n(-c5ccccc5Cl)c5nccn5c4n3)ccc2C2(CC2)C1 , output reported AUC.
RESULT: 9.8

QUERY: Please supply the value of reported AUC for the item CN1CCN(c2ccc(Nc3ncc4c(=O)n(-c5c(Cl)cccc5Cl)c5nccn5c4n3)cc2)CC1
RESULT: 6.5
